Target: hAdoMetDC (Homo sapiens, UniProt P17707)
Construct: the enzyme undergoes autoprocessing to give the α and the β subunits
Sequence (P17707 1-67 limits assumed): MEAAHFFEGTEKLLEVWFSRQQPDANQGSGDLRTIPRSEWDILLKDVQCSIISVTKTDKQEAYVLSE
Sequence (P17707 68-328 limits assumed): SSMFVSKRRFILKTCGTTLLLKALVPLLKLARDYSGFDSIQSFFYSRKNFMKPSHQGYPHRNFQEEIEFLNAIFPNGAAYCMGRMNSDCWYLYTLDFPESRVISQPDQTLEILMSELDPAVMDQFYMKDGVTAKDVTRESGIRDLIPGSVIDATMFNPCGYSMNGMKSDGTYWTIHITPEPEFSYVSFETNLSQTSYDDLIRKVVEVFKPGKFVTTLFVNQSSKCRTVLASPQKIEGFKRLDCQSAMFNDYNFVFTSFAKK
Assay: Assay of AdoMetDC activity (release of 14CO2 from S-adenosyl-L-[carboxy-14C]methionine) and determination of inhibitor IC50 values
Conditions: at least 5 concentrations; curve fit of inhibitor concentration versus % inhibition of hAdoMetDC
pIC50: −log10 of the molar value.
propertyMeasured: pIC50

Study these solved cases before continuing.
- compound: "CN(CCCCON)C[C@H]1O[C@@H](n2cnc3c(N)ncnc32)[C@H](O)[C@@H]1O [Compound 9f]"
  value: 7.74
- compound: "CN(CCCCON)C[C@H]1O[C@@H](n2c(=O)[nH]c3c(N)ncnc32)[C@H](O)[C@@H]1O [Compound 9c]"
  value: 7.96
- compound: "CNc1nc2c(N)ncnc2n1[C@@H]1O[C@H](CN(C)CCCCON)[C@@H](O)[C@H]1O [Compound 9a]"
  value: 7.31
- compound: "Cc1nc2c(N)ncnc2n1[C@@H]1O[C@H](CN(C)CC(=O)NN)[C@@H](O)[C@H]1O [Compound 13m]"
  value: 4.51
- compound: "CN(CCC(N)=O)C[C@H]1O[C@@H](n2cnc3c(N)ncnc32)[C@H](O)[C@@H]1O [Compound 13j]"
  value: 5.15
- compound: "Cc1nc2c(N)ncnc2n1[C@@H]1O[C@H](CN(C)CCCCON)[C@@H](O)[C@H]1O [Compound 9d]"
  value: 8.30

(A) Cc1nc2c(N)ncnc2n1[C@@H]1O[C@H](CN(C)CCC(=O)NN)[C@@H](O)[C@H]1O [Compound 13k]
(B) Cc1nc2c(N)ncnc2n1[C@@H]1O[C@H](CN(C)CCN)[C@@H](O)[C@H]1O [Compound 14f]
*Q* Of A and B , which shows the smaller pIC50 value? Which one? Tell me its label.
*A* B
(B: 4.06, A: 6.77)

Where do these numbers come from? They come from patent US8637485B2.
